- Test system: DIPGX7 (H3.3 K27M diffuse intrinsic pontine glioma line)
- assay_procedure: growth inhibition (% activity, log2 RLU normalised to DMSO / staurosporine); higher = more growth inhibition
- assay_setup: 33 µM
result_type: growth inhibition
Write the numeric value and follow it with the unit.

Solved cases below.
molecule | result
CC(C)(Sc1cc(C(C)(C)C)c(O)c(C(C)(C)C)c1)Sc1cc(C(C)(C)C)c(O)c(C(C)(C)C)c1 | -0.766%
CNC(=O)c1ccc(N2C(=S)N(c3ccc(C#N)c(C(F)(F)F)c3)C(=O)C2(C)C)cc1F | 1.36%
CC(C)CC(N)=O | -0.469%
Nc1nc(=O)c2c([nH]1)NC[C@H](CNc1ccc(C(=O)N[C@@H](CCC(=O)O)C(=O)O)cc1)N2C=O | 2.14%
NC(=O)OCC(COC(N)=O)c1ccccc1 | 1.52%

What does the record list as growth inhibition for CCC(NC(C)C)C(O)c1ccc(O)c(O)c1 (stereo not given) ? 1.03%

Same question, CN(C)c1ccc(O)c2c1C[C@H]1C[C@H]3[C@H](N(C)C)C(=O)C(C(N)=O)=C(O)[C@@]3(O)C(=O)C1=C2O this time 0.692%

Let us now turn to CCCCOc1ccc(C(=O)CCN2CCCCC2)cc1 13%

# repeat for O=P(O)(O)C(Cl)(Cl)P(=O)(O)O 0.292%

Try this molecule next: CN(C)CCOc1ccc(/C(=C(/CCCl)c2ccccc2)c2ccccc2)cc1 6.73%

---

Reported growth inhibition values for a set of molecules
- Tested on: DIPGX29 (H3.3 K27M diffuse intrinsic pontine glioma line)
- assay_procedure: growth inhibition (% activity, log2 RLU normalised to DMSO / staurosporine); higher = more growth inhibition
- assay_setup: 33 µM
Write down the numeric answer in % and omit the unit.

The examples below pair each entry with its known result.
molecule | growth inhibition [%]
CN(C)/N=N/c1[nH]cnc1C(N)=O | 5.71
OCCOCCN1CCN(C(c2ccccc2)c2ccc(Cl)cc2)CC1 (stereo unspecified) | 3.87
CCCCC(CC)CN=C(N)N=C(N)NCCCCCCNC(N)=NC(N)=NCC(CC)CCCC (stereo unspecified) | 57.1
CCN1CCN(c2cc3c(cc2F)c(=O)c(C(=O)O)cn3C2CC2)CC1 | -0.107
CC1=C(/C=C/C(C)=C/C=C/C(C)=C/C=C/C=C(C)/C=C/C=C(C)/C=C/C2=C(C)CCCC2(C)C)C(C)(C)CCC1 | -2.65

Record request: growth inhibition value, item Oc1ncnc2[nH]ncc12 -2.33

Follow-up entry: CCCCCCNC(=O)n1cc(F)c(=O)[nH]c1=O 5.51

And the next one, Cn1c([N+](=O)[O-])cnc1COC(N)=O ? 0.121

Proceed to O=C1CCc2cc(OCCCCc3nnnn3C3CCCCC3)ccc2N1 3.36

Next up: Cc1c(NC(=O)c2cccnc2)c(=O)n(-c2ccccc2)n1C 2.04

Also need CCn1cc(C(=O)O)c(=O)c2cc(F)c(N3CCNCC3)cc21 , thanks. -0.303

---

- Test system: SUDIPGVI (diffuse intrinsic pontine glioma line)
- assay_procedure: growth inhibition (% activity, log2 RLU normalised to DMSO / staurosporine); higher = more growth inhibition
- assay_setup: 33 µM
result_type: growth inhibition (%)
Entry rule: numbers only, all in %.

compound | growth inhibition / %
O=C1OC(CN2CCOCC2)CN1/N=C/c1ccc([N+](=O)[O-])o1 (stereo not given) | -0.066

# lookup: growth inhibition of C=C[C@H]1CN2CC[C@H]1C[C@H]2[C@H](O)c1ccnc2ccc(OC)cc12 4.23

Request: C/C(O)=C(\C#N)C(=O)Nc1ccc(C(F)(F)F)cc1 4.21

Next compound: CCC[C@@H]1C[C@@H](C(=O)N[C@@H]([C@H]2O[C@H](SC)[C@H](OP(=O)(O)O)[C@@H](O)[C@H]2O)[C@H](C)Cl)N(C)C1 -2.75

Further, for COc1cc([C@@H]2c3cc4c(cc3[C@@H](O[C@@H]3O[C@@H]5CO[C@@H](C)O[C@H]5[C@H](O)[C@H]3O)[C@H]3COC(=O)[C@H]23)OCO4)cc(OC)c1O ? 3.89

Nc1ccn(C2CSC(CO)O2)c(=O)n1 (stereo not given) , same question. 1.46

Similarly, C[N+](C)(C)CCCCCC[N+](C)(C)C ? -9.56

And CCN1CCN(C(=O)N[C@@H](C(=O)N[C@@H]2C(=O)N3[C@@H]2SC(C)(C)[C@@H]3C(=O)O)c2ccccc2)C(=O)C1=O ? 0.068

---

- Tested on: DIPGX7
- assay_procedure: growth inhibition (% activity, log2 RLU normalised to DMSO / staurosporine); higher = more growth inhibition
- assay_setup: 33 µM
Recorded growth inhibition for the following compounds
The reply should be a number in %, with the unit left off.

compound | growth inhibition (%)
CN(c1nccc(=O)[nH]1)C1CCN(c2nc3ccccc3n2Cc2ccc(F)cc2)CC1 | 2.33
CC(NCCc1ccc(O)cc1)C(O)c1ccc(O)cc1 (centres undefined) | -0.502
CCOCC(O)COc1ccc(NC(=O)CC[S+](C)C)cc1 (centres undefined) | -0.388
Oc1cc(O)c(Cl)cn1 | -1.58
Clc1ccc(C(Cn2ccnc2)OCc2ccsc2Cl)c(Cl)c1 (centres undefined) | 2.82
O=C(O)Cc1cc(I)c(Oc2ccc(O)c(I)c2)c(I)c1 | 0.436

Report growth inhibition for NC(=O)N/N=C/c1ccc([N+](=O)[O-])o1 please. 0.615

Field entry: C[C@]12CC[C@@H]3c4ccc(O)cc4CC[C@H]3[C@@H]1C[C@@H](O)[C@@H]2O -1.85

Param item: CC(=O)OCC[N+](C)(C)C 3.73

Moving on to COc1ccc(CNc2nc(N3CCC[C@H]3CO)ncc2C(=O)NCc2ncccn2)cc1Cl -0.329

Next: CCN1CC(CCN2CCOCC2)C(c2ccccc2)(c2ccccc2)C1=O (centres undefined) 3.42

# repeat for Cc1c(Cl)cccc1Nc1ccccc1C(=O)O 2.88

Next compound up: CC1CCc2c(N3CCC(O)CC3)c(F)cc3c(=O)c(C(=O)O)cn1c23 (centres undefined) 1.32

Then what about the compound C=C1/C(=C\C=C2/CCC[C@]3(C)[C@@H]([C@H](C)CCCC(C)C)CC[C@@H]23)C[C@@H](O)C[C@@H]1O ? 4.43

Next record, please: COc1ccc2cccc(CCNC(C)=O)c2c1 -1.76

Now consider O=C([O-])c1ccccc1O.[Na+] and answer again. 2.56

Proceed to CC(CN(C)C)CN1c2ccccc2CCc2ccccc21 (centres undefined) -0.333

How about this compound: COc1ccc(-c2ccc3cc(C(=O)O)ccc3c2)cc1C12CC3CC(CC(C3)C1)C2 1.73

Cool, now CC1Cc2ccccc2N1NC(=O)c1ccc(Cl)c(S(N)(=O)=O)c1 (centres undefined) -1.54

Now the same for C#Cc1cccc(Nc2ncnc3cc(OCCOC)c(OCCO)cc23)c1 4.89

---

- Tested on: DIPGX37 (H3.3 K27M diffuse intrinsic pontine glioma line)
- assay_procedure: growth inhibition (% activity, log2 RLU normalised to DMSO / staurosporine); higher = more growth inhibition
- assay_setup: 33 µM
growth inhibition listing for selected compounds.
Express the result in % but write the number alone.

Worked examples follow.
mol | study_system | growth inhibition (%)
Cc1c(Cl)cccc1Nc1ccccc1C(=O)O | DIPGX37 | 2.72
N#C[C@@H]1CCCN1C(=O)CNC12CC3CC(CC(O)(C3)C1)C2 | DIPGX37 | -0.458
Cc1nnc(NS(=O)(=O)c2ccc(N)cc2)s1 | DIPGX37 | 1.32

Hi! What's the reported growth inhibition for C[C@@H]1[C@H](O)[C@@H](C)/C=C/C=C/C=C/C=C/C=C/C=C/C=C/[C@H](O[C@@H]2O[C@H](C)[C@@H](O)[C@H](N)[C@@H]2O)C[C@@H]2O[C@](O)(C[C@@H](O)C[C@@H](O)[C@H](O)CC[C@@H](O)C[C@@H](O)CC(=O)O[C@H]1C)C[C@H](O)[C@H]2C(=O)O on DIPGX37? 0.689

Quick one: Nc1c(CC(=O)O)cccc1C(=O)c1ccccc1 -2.54

---

Recorded measurements of growth inhibition, one per entry
- Tested on: DIPGX9 (diffuse intrinsic pontine glioma line)
- assay_procedure: growth inhibition (% activity, log2 RLU normalised to DMSO / staurosporine); higher = more growth inhibition
- assay_setup: 33 µM
// units = %; emit number, no label

Past entries and their recorded results:
compound | endpoint_unit | growth inhibition
CCC(=O)O[C@]1(C(=O)CCl)[C@@H](C)C[C@H]2[C@@H]3CCC4=CC(=O)C=C[C@]4(C)[C@@]3(F)[C@@H](O)C[C@@]21C | % | 5.92
CC(C(=O)O)c1ccc2c(c1)CC(=O)c1ccccc1S2 (configuration not stated) | % | 1.25
CCCCOc1cc(C(=O)NCCN(CC)CC)c2ccccc2n1 | % | 3.99
C#C[C@]1(O)CC[C@H]2[C@@H]3CCC4=CC(=O)CC[C@@H]4[C@H]3CC[C@@]21C | % | 2.42
CN1CCC(=C2c3ccccc3C=Cc3ccccc32)CC1 | % | 2.34
NC(=O)N/N=C/c1ccc([N+](=O)[O-])o1 | % | 0.733
CC(C)(C#N)c1cc(Cn2cncn2)cc(C(C)(C)C#N)c1 | % | -0.00856
Cc1ccc2c(Cl)cc(Cl)c(O)c2n1 | % | 8.04

Sample Nc1ncn([C@H]2C[C@H](O)[C@@H](CO)O2)c(=O)n1 — what was its growth inhibition? 4.93

One more compound: Cn1c(CNc2ccc(C(=N)N)cc2)nc2cc(C(=O)N(CCC(=O)O)c3ccccn3)ccc21 3.29

Please give the result for Cc1c(O)c(=O)ccn1C too. 1.03

Next up: CNC(=O)CN(CCN(CCN(CC(=O)[O-])CC(=O)NC)CC(=O)[O-])CC(=O)[O-].[Gd+3] -2.31

Consider next the compound CC(C)(CO)[C@@H](O)C(=O)NCCC(=O)O in the same way. -0.68

Now consider COc1ccc2[nH]cc(CCNC(C)=O)c2c1 and answer again. -1.49

Do the same for NC(Cc1cc(I)c(Oc2cc(I)c(O)c(I)c2)c(I)c1)C(=O)O (configuration not stated) please 1.28

Reference source for all entries: the supplement of paper PMC8253809
